Just for reference, PubChem BioAssay (NCATS) is where these values come from.

Protocol Details: qHTS of pediatric cancer cell lines to identify multiple opportunities for drug repurposing: Primary screen for Rh41 cells (AID 1347108); also: nearly all actives have a fitted effect of over 70% in size; also: potency is read from the fitted curve at half-maximal effect
Applied Conditions: Rh41 rhabdomyosarcoma viability, CellTiter-Glo luminescence, 48 h; series mostly up to 46 µM
Inconclusive results are not listed. Active and inactive are the calls of the source. Calls follow the shape of the dose curve; as a rule, active = well fitted cell-killing curve with a large enough effect; inconclusive = small, poorly fitted or top-dose-only effect; inactive = no such curve, though single readings can be large or run the other way.
Recorded Endpoint: Potency

>>> result("O=C(O)c1ccc2cc(-c3ccc(O)c(C45CC6CC(CC(C6)C4)C5)c3)ccc2c1")
"5.9 µM (active)"
>>> result("CCN1CCN(CC(=O)Nc2ccc(-c3cccc4c(=O)cc(N5CCOCC5)oc34)c3sc4ccccc4c23)CC1")
"1.66 µM (active)"
>>> result("Fc1cc(-c2cccc3ncc(-c4cnn(C5CCNCC5)c4)nc23)cc(F)c1CN1CCOCC1")
"23.5 µM (active)"
>>> result("CN1CC[C@@H](c2c(O)cc(O)c3c(=O)cc(-c4ccccc4Cl)oc23)[C@@H](O)C1")
"0.296 µM (active)"
>>> result("O=C(O)c1ccc2c(c1)nc(Nc1cccc(Cl)c1)c1ccncc12")
"14.8 µM (active)"
>>> result("CC=CC1=C(C(=O)O)N2C(=O)[C@H](NC(=O)[C@H](N)c3ccc(O)cc3)[C@@H]2SC1")
"inactive"
>>> result("O=C(O)CCCc1c[nH]c2ccccc12")
"inactive"
>>> result("COc1ccc(C(=O)CC2(O)C(=O)Nc3c(Cl)ccc(Cl)c32)cc1 (stereo not given)")
"3.72 µM (active)"
>>> result("NC(=O)c1cccc2cn(-c3ccc([C@@H]4CCCNC4)cc3)nc12")
"inactive"
>>> result("CC(C)(O)c1cc2nc(-c3cnc(N)nc3)nc(N3CCOCC3)c2s1")
"0.372 µM (active)"
